inhibition overview
- protocol: inhibitors of Chlamydomonas gravitaxis, primary screen, whole organism, Chlamydomonas reinhardtii, WT vs cilia-less mutant, absorbance, 96-well (AID 463189);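 note: 0% = wild type cc124 cells in DMSO and 100% = ciliumless bld1 mutant cells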
- run conditions: OD600 absorbance, 2 days, at 10 µM, active compounds read high
Give the value in % but do not write % after it.

molecule | recorded measurement
Cc1cccc(N)c1SC1CCCCC1O (stereo unspecified) | 15
CC(C)OC(=O)[C@H]1[C@H](c2ccc(Cl)cc2)[C@@](C#N)(C(N)=O)[C@@H]2C=CC(C(N)=O)=CN21 | 6.97
Cn1c(=NCC(O)COc2ccccc2)sc2ccccc21 (stereo unspecified) | 16.2
C[C@]12CC[C@H]3[C@@H](CCC4=CC(=O)CC[C@@]43C)[C@@H]1CC[C@@H]2C(=O)CO | -3.19
COc1ccccc1-c1nn2c(-c3ccc(C(C)(C)C)cc3)nnc2s1 | 19.8
CCOC(=O)C1=C(C)NC(=O)NC1c1ccc2c(c1)OCO2 (stereo unspecified) | -6.75

[Q] Give the measured inhibition of C/C=C(/C(=C/C)c1ccc(O)cc1)c1ccc(O)cc1 .
[A] 25.6

[Q] Next entry: CCOC(=O)C(c1ccccc1)N1CCN(c2ccc(OC)cc2)CC1 (stereo unspecified)
[A] -10

[Q] Next entry: O=C(O)c1cc(O)c2c(c1)C(=O)c1cccc(O)c1C2=O
[A] 2.72

[Q] Next entry: Nc1nnc(CSc2ccc(Cl)cc2)s1
[A] 6.7

[Q] Next entry: CCOc1ccc(CC2CC(=O)NC2=O)cc1 (stereo unspecified)
[A] 9.39
